Recorded values, source patent US20180057604A1.

biological target: T1, human TfR extracellular domain with N-terminal His tag (human, UniProt P02786 89-760); assay: ELISA, TfR-coated plate, IgG in culture supernatant;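 note: human or cynomolgus TfR coated at 2 µg/mL, supernatant IgG titrated in 1:5 steps for 1 h, bound antibody read with HRP anti-human Fcγ and TMB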
T1 construct: Biotinylated in some assays; also called huTfR; HuTfR
T1 sequence (P02786 89-760 G142S): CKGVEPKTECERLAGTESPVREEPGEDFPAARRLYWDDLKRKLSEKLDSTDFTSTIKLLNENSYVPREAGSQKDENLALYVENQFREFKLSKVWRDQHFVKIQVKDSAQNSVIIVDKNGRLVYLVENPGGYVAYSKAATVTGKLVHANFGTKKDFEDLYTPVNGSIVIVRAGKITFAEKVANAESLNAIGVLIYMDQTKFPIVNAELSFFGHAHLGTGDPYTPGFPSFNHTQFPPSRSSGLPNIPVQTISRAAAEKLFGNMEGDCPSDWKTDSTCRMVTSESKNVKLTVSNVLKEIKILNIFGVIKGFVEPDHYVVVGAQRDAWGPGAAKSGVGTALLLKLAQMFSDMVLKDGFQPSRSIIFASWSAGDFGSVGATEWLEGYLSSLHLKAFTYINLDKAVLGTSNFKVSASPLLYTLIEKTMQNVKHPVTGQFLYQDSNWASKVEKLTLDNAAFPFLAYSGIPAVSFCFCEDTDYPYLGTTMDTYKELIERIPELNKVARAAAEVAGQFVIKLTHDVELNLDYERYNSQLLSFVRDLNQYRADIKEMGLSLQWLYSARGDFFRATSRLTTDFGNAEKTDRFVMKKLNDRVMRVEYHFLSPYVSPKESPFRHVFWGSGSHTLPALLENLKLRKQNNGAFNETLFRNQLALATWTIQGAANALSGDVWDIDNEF
Measurement Name: EC50
Please answer using the number first and the unit second.

Which EC50 reading was recorded for the binder hu15G11.v5 IgG Ala variant N58A (HVR-H2) (antibody, name in Kabat numbering, V domains shown, IgG in cell culture supernatant; Kabat numbers after 52a lie one below the linear count) VH: EVQLVQSGAEVKKPGASVKVSCKASGYTFTSYWMHWVRQAPGQRLEWIGEINPTNGRTAYIEKFKSRATLTVDKSASTAYMELSSLRSEDTAVYYCARGTRAYHYWGQGTMVTVSS VL: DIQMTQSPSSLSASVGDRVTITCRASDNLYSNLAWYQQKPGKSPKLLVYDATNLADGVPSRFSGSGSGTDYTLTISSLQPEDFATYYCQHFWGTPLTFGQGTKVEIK ? 6.3 ng/mL

Check hu15G11.v5 IgG Ala variant M34A (HVR-H1) (antibody, name in Kabat numbering, V domains shown, IgG in cell culture supernatant) VH: EVQLVQSGAEVKKPGASVKVSCKASGYTFTSYWAHWVRQAPGQRLEWIGEINPTNGRTNYIEKFKSRATLTVDKSASTAYMELSSLRSEDTAVYYCARGTRAYHYWGQGTMVTVSS VL: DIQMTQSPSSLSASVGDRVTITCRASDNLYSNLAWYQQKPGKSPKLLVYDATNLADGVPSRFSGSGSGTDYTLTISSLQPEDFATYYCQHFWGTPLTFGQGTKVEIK too. 0.4 ng/mL

Another: hu15G11.v5 IgG Ala variant I60A (HVR-H2) (antibody, name in Kabat numbering, V domains shown, IgG in cell culture supernatant; Kabat numbers after 52a lie one below the linear count) VH: EVQLVQSGAEVKKPGASVKVSCKASGYTFTSYWMHWVRQAPGQRLEWIGEINPTNGRTNYAEKFKSRATLTVDKSASTAYMELSSLRSEDTAVYYCARGTRAYHYWGQGTMVTVSS VL: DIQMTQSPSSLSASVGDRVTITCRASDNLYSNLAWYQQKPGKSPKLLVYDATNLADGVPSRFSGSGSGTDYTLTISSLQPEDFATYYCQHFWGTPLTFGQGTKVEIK 0.3 ng/mL
